test.method.notes: Solubility of progesterone in glycol chitin solutions (reverse-phase HPLC)
Format: physicochemical
measurement.context: aqueous with cosolvent or surfactant or cyclodextrin; in a mixture of PEG-400/water (50:50 v/v)
endpoint: solubility

Return solubility (reported value) for this compound: `CC(=O)[C@H]1CC[C@H]2[C@@H]3CCC4=CC(=O)CC[C@]4(C)[C@H]3CC[C@]12C` ~200 µg/mL

* * *

test.method.notes: Solubility of progesterone in glycol chitin solutions (reverse-phase HPLC)
Assay type: physicochemical
measurement.context: 5 wt % glycol chitin solution, 4 °C, aqueous with cosolvent or surfactant or cyclodextrin, thermodynamic from solid
endpoint: solubility at 24 h (µg/mL)
Give just the number in µg/mL; leave the unit off.

Tell me its solubility at 24 h given `CC(=O)[C@H]1CC[C@H]2[C@@H]3CCC4=CC(=O)CC[C@]4(C)[C@H]3CC[C@]12C` as the entry. 148
